Biological target: T1, BALB/c mouse SIRP-α D1 domain (mouse (BALB/c strain))
T1 chain: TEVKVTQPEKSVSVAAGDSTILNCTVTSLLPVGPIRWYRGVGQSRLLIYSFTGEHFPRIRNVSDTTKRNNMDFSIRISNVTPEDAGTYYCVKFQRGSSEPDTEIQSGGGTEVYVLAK
Test: SPR, ProteOn, antibody on chip
Method: All experiments were performed at 25° C. using a SPR-based ProteOn XPR36 biosensor (BioRad, Inc, Hercules, Calif.) equipped with GLC or NLC sensor chips. […] Purification was carried out by standard Protein A affinity column chromatography and eluted antibodies were stored in PBS buffer. The running buffer was PBS pH 7.4 with 0.01% Tween-20 (PBST+). All analytes were used at their nominal concentrations as determined by A280 Absorbance and using their molar calculated extinction coefficient. […]
pKd: −log10 of the molar value.
quantity: pKd

>  <binder>
AB3c (antibody, mouse IgG2a, V domains shown, Full-length mouse IgG2a) VH: AVTLDESGGGLQTPGGALSLVCKASGFIFSDYGMNWVRQAPGKGLEFVAQITSGSRTYYGAAVKGRATISRDNRQSTVKLQLNNLRAEDTGIYFCARDFGSGVGSIDAWGNGTEVIVSS VL: ALTQPASVSANLGGTVKITCSGSRGRYGWYQQRSPGSAPVTVIYRDNQRPSNIPSRFSSSTSGSTSTLTITGVQADDESVYFCGSYDGSIDIFGAGTTLTVL

>  <measurement>
8.27

$$$$
>  <binder>
AB25c (antibody, mouse IgG2a, V domains shown, Full-length mouse IgG2a) VH: DVQLVESGGGVVRPGESLRLSCEASGFTFSSNAMSWVRQAPGKGLEWVAGISSGSDTYYGDSVKGRLTISRDNSKNILYLQMNSLTAEDTAVYYCARETWNHLFDYWGLGTLVTVSS VL: ALTQPASVSANPGETVEITCSGGSYSSYYYAWYQQKSPGSAPVTLIYSDDKRPSNIPSRFSGSASGSTATLTITGVRAEDEAVYFCGGYDQSSYTNPFGAGTTLTVL

>  <measurement>
8.02

$$$$
>  <binder>
AB66c (antibody, mouse IgG2a, V domains shown, Full-length mouse IgG2a) VH: DVQLVESGGGVVRPGESLRLSCAASGFTFSSYAMSWVRQAPGKGLEWLAGISAGGSDTYYIDSVKGRFTISRDNPKNSLYLQMSSLTAEDTAVYYCARETWNHLFDYWGLGTLVTVSS VL: ALTQPASVSANPGETVKITCSGGDYYSTYYAWYQQKSPGSAPVTVIHSDDKRPSDIPSRFSGSASGSAATLIITGVRVEDEAVYYCGGYDGRTYINTFGAGTTLTVL

>  <measurement>
8.47

$$$$
